- Tested on: Listeria innocua ATCC 33090
- Assay Name: Experiment 2: octanoate esterase substrates with different Indoxyl-based chromogenic markers
- Format: cell-based
- Parameters: key: —: the symbol “-” corresponds to the absence of color or intensity; 0 corresponds to no activity; 0.1 corresponds to a trace of color; 0.5 corresponds to very pale coloration; 1 corresponds to clear but low-intensity coloration; 1.5 corresponds to a degree of coloration intermediate between scores 1 and 2; 2 corresponds to clear coloration of moderate intensity; 2.5 corresponds to a degree of coloration intermediate between scores 2 and 3; 3 corresponds to intense coloration; 3.5 corresponds to a degree of coloration intermediate between scores 3 and 4; 4 corresponds to very intense coloration
- Condition Info: IT 24 h, 37° C., substrate 250 mg/l
Quantity: C (color of the colonies)

Molecule: CCCCCCCC(=O)Oc1c[nH]c2cc(Cl)ccc12 [Pink-C8, 6-Chloro-3-indolyl octanoate]
Quantity: C (color of the colonies)
Measured Value: —
--
Molecule: CCCCCCCC(=O)Oc1c[nH]c2ccc(Br)cc12 [Blue-C8, 5-Bromo-3-indolyl octanoate]
Quantity: C (color of the colonies)
Measured Value: gray
